System: TO-N3-2 (biotin conjugate)
EXPERIMENTAL_DETAILS: pull-down binding Z-score (relative to library population); higher = stronger binding
ASSAY_SETUP: RNA library: Library-2
Classification field: yes = pull-down binding Z-score at or over -0.3; no = pull-down binding Z-score under -0.3.

biosequence="UCCUGAUGGUCCCCUCCCCAGGG [hsa-mir-185]" category=yes
biosequence="UGGCACAGAUCCAAUACCUUCUGUCCCC [hsa-mir-6810]" category=yes
biosequence=AAACGAACUAAAUAUUAUAUUAGUUUUUCUGUUU category=no
biosequence="AGAAGAACU [hsa-mir-378j]" category=yes
biosequence=UAAAUUUUUGGCUUUGUGUGCUGACUCUAUCAUUAUUGGUGGAGCUAAACUUAAAGCCUUGAAUUUA category=no

###

A collection of sequences and their measured pull-down binding Z-score
System: G-clamp-N3 (biotin conjugate)
EXPERIMENTAL_DETAILS: pull-down binding Z-score (relative to library population); higher = stronger binding
ASSAY_SETUP: RNA library: Library-1 (pre-miRNA loops + repeats)
MEASURED_METRIC: pull-down binding Z-score

biosequence="GCUCUGGGGAUUUGGUCUCACAGC [hsa-mir-3940]" measured_metric="pull-down binding Z-score" measured_number=0.507
biosequence="AGAUCCCCUGUUAGAGACGGGCC [hsa-mir-6840]" measured_metric="pull-down binding Z-score" measured_number=-1.25
biosequence="UGUGAGAGCUACUAAGUCUUAUA [hsa-mir-8076]" measured_metric="pull-down binding Z-score" measured_number=0.772
biosequence="UGCUAUUACUUGUAUUUAUUUGUAAUGCA [hsa-mir-548ab]" measured_metric="pull-down binding Z-score" measured_number=-0.547
biosequence="UGCAGAUGUGGACUGCUAAAUGCA [hsa-mir-1253]" measured_metric="pull-down binding Z-score" measured_number=-0.572
biosequence="GACAAUAUGUAUAAUGUUCAUAAGUCAUUC [hsa-mir-384]" measured_metric="pull-down binding Z-score" measured_number=0.231
biosequence="UUUUUUUCGCUUUAUUUGUGACGAAAC [hsa-mir-543]" measured_metric="pull-down binding Z-score" measured_number=-0.305
biosequence="GUAUGAGUGGUGUGGAGUCUUCAUAA [hsa-mir-9-1]" measured_metric="pull-down binding Z-score" measured_number=-0.511
biosequence="CAUUUGUGGCAUGGACCAUUUGUG [hsa-mir-4504]" measured_metric="pull-down binding Z-score" measured_number=-0.183
biosequence="GGUAUGGAUUCUGUUGUUUUGGCAACAUUCU [hsa-mir-8088]" measured_metric="pull-down binding Z-score" measured_number=0.269
biosequence="GCCUUGUGGCAUGGAGUUCAAGC [hsa-mir-107]" measured_metric="pull-down binding Z-score" measured_number=0.5
biosequence="CCAUACAAUAUUUGG [hsa-mir-1302-1]" measured_metric="pull-down binding Z-score" measured_number=-1.2
biosequence="UGAGUUUA [hsa-mir-451a]" measured_metric="pull-down binding Z-score" measured_number=-1.09

###

Tested on: TO-3-N3-2 (biotin conjugate)
EXPERIMENTAL_DETAILS: pull-down binding Z-score (relative to library population); higher = stronger binding
ASSAY_SETUP: RNA library: Library-2
Classification field: criterion met = pull-down binding Z-score at or over -0.2; criterion not met = pull-down binding Z-score under -0.2.

biosequence="GAGUCCUAUUUAUUUUUAGGAUAUUAGGAA [hsa-mir-5692c-2]" target_entity="TO-3-N3-2 (biotin conjugate)" category="criterion met"
biosequence="UCACACUCAAAGGCGGUGCACCAACAAAGGUUACUUUUGGUGAUGACACUGUGAUAGAAGUGCAAGGUUACAAGAGUGUGAAUAUCACUUUUGAACUUGAUGA [DMSMaPseq_invitro_SARS-CoV-2_Multi_10_ComplexLevel_1]" target_entity="TO-3-N3-2 (biotin conjugate)" category="criterion met"
biosequence="CCCAUUUAAAAUAUGGAA [hsa-mir-548ai]" target_entity="TO-3-N3-2 (biotin conjugate)" category="criterion met"
biosequence="GUGCACUUGACCCUCUCUCAGAAACAAAGUGUAC [SHAPE_invivo_SARS-CoV-2_Motif_422]" target_entity="TO-3-N3-2 (biotin conjugate)" category="criterion met"
biosequence="GCACUACAGCUAAGGCUAUGGAGC [IAV_invivo_M1_M2_7_Motif_13+IAV_invivo_M1_M2_7_Motif_13]" target_entity="TO-3-N3-2 (biotin conjugate)" category="criterion not met"

###

System: TO-3-N3-2 (biotin conjugate)
EXPERIMENTAL_DETAILS: pull-down binding Z-score (relative to library population); higher = stronger binding
ASSAY_SETUP: RNA library: Library-2
A collection of sequences and their measured pull-down binding Z-score
MEASURED_METRIC: pull-down binding Z-score

biosequence=UCCUUACAUGGA measured_number=-0.672
biosequence="UCAUAACAGAUGCGCAAACAGGUUCAUCUAAGUGUGUGUGUUCUGUUAUUGA [SHAPE_invivo_SARS-CoV-2_Motif_383]" measured_number=-0.455
biosequence="GCUUAUGUCAUGACCUUGGGCUACUCAGGCUGUCUGCACAAUGAGC [hsa-mir-575]" measured_number=-0.342
biosequence=GGCGAUAGUUGUAAUAACUAUAUGCU measured_number=-0.564
biosequence=UCCUAUUUCUGAACAUGACUACCAGAUUGGUGGUUAUACUGAAAAAUGGGA measured_number=-0.375
biosequence="CUGCAGAGACGAGGCCUGUAG [hsa-mir-5682]" measured_number=0.149

###

Test system: TO-3-N3 (biotin conjugate)
EXPERIMENTAL_DETAILS: pull-down binding Z-score (relative to library population); higher = stronger binding
ASSAY_SETUP: RNA library: Library-2
MEASURED_METRIC: pull-down binding Z-score

biosequence=UCCACACGCAAGUUGUGGA measured_number=-0.719
biosequence="GCAUAUAGAGUAUAUGC [hsa-mir-4657]" measured_number=-0.323
biosequence="UGAGGAGUAGAACACUCCUUA [hsa-mir-491]" measured_number=-0.282
biosequence=GGUUGUAUGGUACAAGUAACUUGUGGUACAACU measured_number=-0.51
biosequence="UCCCCUCAGGA [hsa-mir-5703]" measured_number=0.0295
biosequence="GACGUCCAAUCUCUUUGGGACGCC [hsa-mir-2682]" measured_number=0.551
biosequence="UGGGUUUGAGUCUGAAUCAACUCA [hsa-mir-181b-2]" measured_number=-0.728
biosequence="AACGGGGCGGGCCGGGGGCGGGGUAA [G4_2A2_VEGF-Pu22]" measured_number=8.27

###

System: TO-N3-2 (biotin conjugate)
EXPERIMENTAL_DETAILS: pull-down binding Z-score (relative to library population); higher = stronger binding
ASSAY_SETUP: RNA library: Library-2
Classification field: T = pull-down binding Z-score at or over 0.07; F = pull-down binding Z-score under 0.07.

biosequence="ACGAUAUAUAUACUGCCCUGCUUUUAUACAUACAUACAUACAUACCUAUAUCGU [hsa-mir-4536-1]" category=F
biosequence=CAGGCCACAAAUAGGCGUG category=T
biosequence=AGGUUGGUAUGCAAAAGUAUUCUACACUCCAGGGACCACCUGGUACUGGUAAGAGUCAUUUUGCUAUUGGCCU category=T
biosequence=CUCUUGUAAUGUAAACAGAUUUAAUGUUGCUAUUACCAGAG category=F
biosequence="CUGAACCCGUGGGUGAGGAGUGCAG [hsa-mir-4690]" category=T
biosequence="UGCUUCAGUUUCACUCCAAGCA [hsa-mir-4771-2_4771-1]" category=F
biosequence="GUUGGGGAACAGGUGGUUAGCACUUCAU [hsa-mir-5196]" category=T
biosequence="UUGCUCUUUGGUGGAGAUA [hsa-mir-6074]" category=T
biosequence="GAUCCUUUGUUCUGGAUC [hsa-mir-7856]" category=F
biosequence="UGUCUUGUAGCCAGGAUAUUGUUUUAAAGAA [hsa-mir-4668]" category=F
biosequence="CUGAAAAUACAAAAUGGAAAAUUCCAG [hsa-mir-4494]" category=F
biosequence="AUAGUUUUAGGGUCACACCCACCACUGGGAGAUAACUAU [hsa-let-7a-1]" category=F
biosequence="GCUGGGGCGCGGGCUUUCGCUUUCAGUCGAGGGCUAGCGAGCGCAGC [hsa-mir-7846]" category=T
biosequence="AGGAGUUCACU [hsa-mir-1183]" category=T
biosequence="ACACCUGUAAAGAAUUGGUCAGCCUGGGGACUGGUGAUCUCUGCAGCUGU [hsa-mir-4265]" category=T
biosequence="GGGAUGAGCCCUGGCUCUGUUUCCUAG [hsa-mir-378h]" category=T
biosequence="UUUAAGACACCCUGUACCUUAAA [hsa-mir-3121]" category=F
biosequence=GGACUUGAAAGAGCC category=F
biosequence=AAGAAGGUCAAAUCAAUGAUAUGAUUUUAUCUCUUCUU category=F
biosequence="CAGGUGACUUUGAUACUUACCUG [U1snRNP5ss-18]" category=F
biosequence="GAGGUGAGCAGGAUACUUACCUG [U1snRNP5ss-16]" category=T
biosequence="CAGACCAUGCCACAUCCGUCUG [hsa-mir-7152]" category=F
biosequence="CCGCUAGUGGAAGAAGAUGGCGG [hsa-mir-6125]" category=T
biosequence=CAUGUGGUAGUGUUGGUUUUAACAUAGAUUAUGACUGUGUCUCUUUUUGUUACAUGCACCAUAUG category=F
biosequence="UGAGUGAUGACUCAGGCGACUCCA [hsa-mir-338]" category=T
biosequence="GUCAUUUCCCAUCACUAAUGGC [hsa-mir-6815]" category=F
biosequence="AAACCUAAUGAAUUAUCUAGAGUAUUAGGUUU [SHAPE_invitro_SARS-CoV-2_Motif_132]" category=F
biosequence="GAAAAUGACUCUAAAGAGGGUUUUUUC [SHAPE_invitro_SARS-CoV-2_Motif_382]" category=F
biosequence="GCUUCCACUGAGAAGU [DMSMaPseq_invitro_SARS-CoV-2_Motif_384]" category=F
biosequence=UCCACUAGCAUCUUUAUUGGAGAUGUGCCACAGCACACAGAUUGGUGGAAUUAGGAUGGUAGACAUCCUUAGGCAGAACCCAACAGAAGAGCAAGCCGUGGA category=F
biosequence="AAGUUAAUUUUCCUCUGGCUGUUAUGGCCAGUAACUU [SHAPE_invivo_SARS-CoV-2_Motif_506]" category=F
biosequence="UCAGCACCUGAACGCCAAGGCUGG [hsa-mir-3150a]" category=T
biosequence=CAUGGAUUUGUCUUCUACAAUUUGCCUAUG category=F
biosequence="CCCAAUCAUGAAGGG [IAV_invivo_PB1_2_Motif_24+IAV_invivo_PB1_2_Motif_24]" category=F
biosequence="GUGUUUGUGACAUAAUUUGU [hsa-mir-325]" category=F
